Target: furin, P09958;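 further: purified furin at 1:10 enzyme:substrate in 50 mM HEPES pH 7.5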
Sequence (P09958 whole entry): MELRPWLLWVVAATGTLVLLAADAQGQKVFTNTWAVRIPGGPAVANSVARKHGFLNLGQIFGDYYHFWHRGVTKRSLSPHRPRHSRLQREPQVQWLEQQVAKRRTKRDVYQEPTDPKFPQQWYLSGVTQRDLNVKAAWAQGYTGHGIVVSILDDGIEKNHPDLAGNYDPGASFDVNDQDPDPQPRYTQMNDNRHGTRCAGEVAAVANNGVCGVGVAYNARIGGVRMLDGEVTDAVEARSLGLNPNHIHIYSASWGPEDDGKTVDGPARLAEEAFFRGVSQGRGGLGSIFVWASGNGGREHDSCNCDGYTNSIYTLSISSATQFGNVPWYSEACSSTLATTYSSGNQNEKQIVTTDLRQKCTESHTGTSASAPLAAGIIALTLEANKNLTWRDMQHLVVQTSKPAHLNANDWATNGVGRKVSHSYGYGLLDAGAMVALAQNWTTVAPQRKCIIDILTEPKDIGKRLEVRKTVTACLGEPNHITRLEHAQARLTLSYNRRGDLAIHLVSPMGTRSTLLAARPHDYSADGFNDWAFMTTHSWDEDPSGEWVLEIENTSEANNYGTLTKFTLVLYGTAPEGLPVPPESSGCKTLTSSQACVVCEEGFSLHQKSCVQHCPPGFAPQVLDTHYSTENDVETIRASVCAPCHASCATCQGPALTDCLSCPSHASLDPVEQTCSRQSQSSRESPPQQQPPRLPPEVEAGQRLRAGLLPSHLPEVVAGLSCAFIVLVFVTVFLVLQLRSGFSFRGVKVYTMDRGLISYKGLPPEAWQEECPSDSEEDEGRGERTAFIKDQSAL
Experiment: furin cleavage Z-score vs untreated control; higher = more cleavage, active = 3.5 or more, inactive = 1 or less, 8 variable residues between constant flanks
Settings: 7.5 min
The list shows a part of the results. How many sequences the whole screen found active is unknown.
Each entry falls in a class defined on furin cleavage Z-score; the bands are bin 1 = under -0.2, bin 2 = from -0.2 up to 2, bin 3 = 2 and over

Request: Which category fits this record: CARHKRGRGDAGNASASA [FS-1714]
Response: bin 2

Request: Categorize the following entry: CARQNRWKRQAGNASASA [FS-956]
Response: bin 3

Request: Note: place this sequence into its band. Item: CAGLKRGGAKAGNASASA [DV6]
Response: bin 2

Request: Sort into band: CARHLREVGDAGNASASA [FS-1715]
Response: bin 3

Request: Which class holds CARQNRGFRAAGNASASA [FS-3040] ?
Response: bin 2

Request: The entry to classify is CARTKRLTAQAGNASASA [FS-2314] ; which class holds it?
Response: bin 1

Request: Hello team, could you let me know which band the following sequence falls into: CARTKRSAFFAGNASASA [FS-2190]
Response: bin 3

Request: Dear colleague, I would appreciate it if you could identify the bin for CATELDGVRLAGNASASA [HC1222] and reply at your convenience.
Response: bin 1

Request: For this sequence, which bin applies? CARTKKAKMKAGNASASA [FS-2823]
Response: bin 1

Request: # bin label for CARTKRDYDFAGNASASA [FS-2313]
Response: bin 3

Request: Tag the class for CARDDRSTSFAGNASASA [FS-1689]
Response: bin 2

Request: Class? Entry: CAVEIRQVGDAGNASASA [HC1206]
Response: bin 1

Request: Sort CARQNRSVRLAGNASASA [FS-1916] into one of the categories.
Response: bin 3

Request: Which band does CARHKRIPPEAGNASASA [FS-3254] fall in?
Response: bin 2

Request: Lab note: sort CARHGRDLYRAGNASASA [FS-2675] into the matching furin cleavage Z-score band.
Response: bin 2

Origin of measurements: the supplement of paper PMC3545927
